System: Human betaherpesvirus 5
ASSAY COMMENT: Antiviral activity against Human cytomegalovirus AD169 infected in HEL cells assessed as reduction in virus-induced cytopathicity after 7 days
Format: functional, organism-based
Activity calls are given as the source filed them. No cut-off for these calls is given here.
READOUT KIND: Activity

// below: answered molecules
MOLECULE	Activity
CCCCCCCC(=O)NCC#Cc1cn([C@H]2C[C@H](O)[C@@H](COP(=O)(N[C@@H](C)C(=O)OCc3ccccc3)Oc3ccccc3)O2)c(=O)[nH]c1=O (stereo not given in full)	inactive
CCCCCCCC(=O)NCC#Cc1cn([C@H]2C[C@H](O)[C@@H](CO)O2)c(=O)[nH]c1=O	inactive
CCCCCCCC(=O)NCC#Cc1cn([C@H]2C[C@H](O)[C@@H](COP(=O)(N[C@@H](C)C(=O)OCc3ccccc3)Oc3cccc4ccccc34)O2)c(=O)[nH]c1=O (stereo not given in full)	inactive
CCCCCCCC(=O)NCC#Cc1cn([C@H]2C[C@H](O)[C@@H](COP(=O)(N[C@@H](C)C(=O)OC)Oc3cccc4ccccc34)O2)c(=O)[nH]c1=O (stereo not given in full)	inactive

Q. What Activity value was documented for this molecule, CCCCCCCC(=O)NCC#Cc1cn([C@H]2C[C@H](O)[C@@H](COP(=O)(N[C@@H](C)C(=O)OCC(C)C)Oc3cccc4ccccc34)O2)c(=O)[nH]c1=O (stereo not given in full) ?
A. inactive

* * *

System: Human alphaherpesvirus 2
ASSAY COMMENT: Antiviral activity against Herpes simplex virus 2 G infected in HEL cells assessed as reduction in virus-induced cytopathicity after 3 days
Assay type: functional, organism-based
PROTOCOL CONDITIONS: Human alphaherpesvirus 2, strain G, 72 h
pEC50: −log10 of the molar value.
# pEC50 listing for each entry below

Solved cases below.
MOLECULE	READOUT KIND	RESULT
CCCCCCCC(=O)NCC#Cc1cn([C@H]2C[C@H](O)[C@@H](COP(=O)(N[C@@H](C)C(=O)OCc3ccccc3)Oc3cccc4ccccc34)O2)c(=O)[nH]c1=O (stereo partly drawn)	pEC50	< 4.00
CCCCCCCC(=O)NCC#Cc1cn([C@H]2C[C@H](O)[C@@H](CO)O2)c(=O)[nH]c1=O	pEC50	< 4.00

Q. Could you share which pEC50 value was measured for CCCCCCCC(=O)NCC#Cc1cn([C@H]2C[C@H](O)[C@@H](COP(=O)(N[C@@H](C)C(=O)OC)Oc3cccc4ccccc34)O2)c(=O)[nH]c1=O (stereo partly drawn) ?
A. < 4.00

* * *

ASSAY COMMENT: Cytotoxicity against HEL cells assessed as morphological changes after 3 to 5 days […]
Type: cell-based
PROTOCOL CONDITIONS: human
READOUT KIND: MCC

COMPOUND	MCC
CCCCCCCC(=O)NCC#Cc1cn([C@H]2C[C@H](O)[C@@H](COP(=O)(N[C@@H](C)C(=O)OC)Oc3cccc4ccccc34)O2)c(=O)[nH]c1=O (stereo not given in full)	> 100 µM
CCCCCCCC(=O)NCC#Cc1cn([C@H]2C[C@H](O)[C@@H](COP(=O)(N[C@@H](C)C(=O)OCC(C)C)Oc3cccc4ccccc34)O2)c(=O)[nH]c1=O (stereo not given in full)	> 100 µM
Nc1nc2c(ncn2COCCO)c(=O)[nH]1	> 440 µM
CCCCCCCC(=O)NCC#Cc1cn([C@H]2C[C@H](O)[C@@H](COP(=O)(N[C@@H](C)C(=O)OCc3ccccc3)Oc3ccccc3)O2)c(=O)[nH]c1=O (stereo not given in full)	> 100 µM

From here, focus on the item given below.
Q. Suppose we examine the compound CCCCCCCC(=O)NCC#Cc1cn([C@H]2C[C@H](O)[C@@H](COP(=O)(N[C@@H](C)C(=O)OCc3ccccc3)Oc3cccc4ccccc34)O2)c(=O)[nH]c1=O (stereo not given in full) ; what MCC value has been reported?
A. > 100 µM
